Assay summary: PK of compound of Formula (Ia) after single subcutaneous dose of solution formulations in beagle dogs
Type: in vivo
Assay setup: male, beagle, dog, plasma, sc, 12 mg/kg, mean ± SD, n = 3 dogs; SC 12 mg/kg; solution T, 400 mg/mL
Reported property: AUC(0-inf) (µM·h)
Lab book: enter the figure in µM·h, no units written.

Indicate its recorded AUC(0-inf); the compound in question is CC(C)(C#Cc1ccc(-c2ccc(Cl)c3c(NS(C)(=O)=O)nn(CC(F)(F)F)c23)c([C@H](Cc2cc(F)cc(F)c2)NC(=O)Cn2nc(C(F)(F)F)c3c2C(F)(F)[C@@H]2C[C@H]32)n1)S(C)(=O)=O [compound of Formula (Ia)]
219

----------
Assay summary: PK of compound of Formula (Ia) after single subcutaneous dose of solution formulations in Wistar Han rats
Assay type: in vivo
Assay setup: male, Wistar Han, rat, plasma, sc, 50 mg/kg, 672 h; individual rats; SC 50 mg/kg; solution R, 400 mg/mL
Reported property: concentration at 672 h (nM)
Lab book: enter the figure in nM, no units written.

Indicate its recorded concentration at 672 h; the compound in question is CC(C)(C#Cc1ccc(-c2ccc(Cl)c3c(NS(C)(=O)=O)nn(CC(F)(F)F)c23)c([C@H](Cc2cc(F)cc(F)c2)NC(=O)Cn2nc(C(F)(F)F)c3c2C(F)(F)[C@@H]2C[C@H]32)n1)S(C)(=O)=O
290

----------
Assay summary: PK of compound of Formula (Ia) after single subcutaneous dose of solution formulations in beagle dogs
Type: in vivo
Assay setup: male, beagle, dog, plasma, sc, 12 mg/kg, mean ± SD, n = 3 dogs; SC 12 mg/kg; solution W, 400 mg/mL; read-out: AUC0-4368 h
Reported property: AUC(0-t) (µM·h)
Lab book: enter the figure in µM·h, no units written.

Indicate its recorded AUC(0-t); the compound in question is CC(C)(C#Cc1ccc(-c2ccc(Cl)c3c(NS(C)(=O)=O)nn(CC(F)(F)F)c23)c([C@H](Cc2cc(F)cc(F)c2)NC(=O)Cn2nc(C(F)(F)F)c3c2C(F)(F)[C@@H]2C[C@H]32)n1)S(C)(=O)=O
182

----------
Assay summary: PK of compound of Formula (Ia) after single subcutaneous dose of solution formulations in beagle dogs
Format: in vivo
Assay setup: male, beagle, dog, plasma, sc, 12 mg/kg, male beagle dogs, single SC 12 mg/kg, 400 mg/mL solution AA (6.25% poloxamer 188), mean ± SD, n = 3; read-out: AUC0-3696 h
Method: Formulations containing the compound of Formula (Ia), or a pharmaceutically acceptable salt thereof, were prepared as solutions and optionally administered subcutaneously or intramuscularly to rats, rabbits, and/or dogs. A solution of about 400 mg/mL of the compound of Formula (Ia) having 17.00 w/w % water, 36.40 w/w % PEG 300, 35.20 w/w % of a sodium salt of a compound of Formula (Ia), 5.00 w/w % ethanol, and 6.40 w/w % poloxamer 188 was prepared. […]
Reported property: AUC(0-t) (µM·h)
Lab book: enter the figure in µM·h, no units written.

Indicate its recorded AUC(0-t); the compound in question is CC(C)(C#Cc1ccc(-c2ccc(Cl)c3c(NS(C)(=O)=O)nn(CC(F)(F)F)c23)c([C@H](Cc2cc(F)cc(F)c2)NC(=O)Cn2nc(C(F)(F)F)c3c2C(F)(F)[C@@H]2C[C@H]32)n1)S(C)(=O)=O
208
